- Test system: SF-295
- MEASUREMENT_DESCRIPTION: NCI tumour cell line growth inhibition, 48 h
Active and inactive are the calls of the source. Rule as the data show it: active = GI50 up to about 1.1 µM and inactive = higher.
Result category, one only: active, inactive

Illustrative cases are given below, each with its answer.
CCCCCCCCCCCCCCCCCCNc1ccn(C2OC(COP(=O)(O)OCC3OC(n4ccc(NC(=O)CCCCCCCCCCCCCCCCC)nc4=O)C(OC(C)=O)C3OC(C)=O)C(OC(C)=O)C2OC(C)=O)c(=O)n1 (stereo not given) : inactive
N#Cc1c(-c2ccc(Cl)cc2)c(-c2ccc(Cl)cc2)nn(CCOC(=O)CCC(=O)O)c1=O : active
O=NN(CCCl)C(=O)N[C@H]1CC[C@@H](CC(=O)O)CC1 : inactive

Recorded call for Oc1ccc(C[C@@H]2CN[C@H](Cc3ccc(O)c(Br)c3)CN2)cc1 ?
inactive

For CCOC(=O)CC/C(C)=N\n1c(Cc2ccc(Cl)cc2)n[nH]c1=O , what call appears in the results of this test?
inactive

----------
- Tested on: M14
- MEASUREMENT_DESCRIPTION: NCI tumour cell line growth inhibition, 48 h
Activity calls are given as the source filed them. No stated cut-off is given here; in the data, active = GI50 up to about 1.1 µM and inactive = higher.
Please state which outcome applies, choosing from active, inactive

Reference set, count: 2
C/C(=N\NC(=S)NC(C)(C)C)c1ccccn1 : active
Cc1cnc2c(c1)C(=O)N(c1ccc(Oc3ccccc3)cc1)S2(=O)=O : inactive

GET /call?item= COc1ccc(C(=O)C(C(=O)CCC(=O)Nc2cccc(C(F)(F)F)c2)c2ccccc2)cc1 (stereo not given) returns the recorded outcome of this test.
inactive

Can you look up the reported call for COc1cc2c(cc1OCCN1CCN(CCOc3cc4c(cc3OC)C(=O)N3CCC[C@H]3C=N4)CC1)N=C[C@@H]1CCCN1C2=O for me?
inactive

Each molecule tested received a call. Report the one for CSc1nc(NC(C)C)c2c(n1)Sc1nc3ccccc3n1N=C2 .
inactive

----------
- Tested on: CAKI-1
- MEASUREMENT_DESCRIPTION: NCI tumour cell line growth inhibition, 48 h
Activity calls are given as the source filed them. Cut-off read from the data, not from the text of the source: active = GI50 up to about 1.1 µM and inactive = higher.
Pick one and only one: active, inactive

Examples with answers:
Nc1ncc(Br)c(NCC2(CO)CCC2)n1 : inactive
Cc1ccc(C2C(Cl)C(=O)N2n2cnc3ccccc3c2=O)cc1 (configuration not stated) : inactive
O=[N+]([O-])c1ccccc1OCCOc1ccccc1[N+](=O)[O-] : inactive
Oc1ccc(-c2nc3ccc(Cl)cc3s2)cc1 : inactive
COc1cc(C2C3=C(COC3=O)Oc3cc4c(cc32)OCO4)cc(OC)c1OC (configuration not stated) : active

Tell me the assay call for O=S(=O)(CC#CCS(=O)(=O)c1ccccc1)c1ccccc1 please.
inactive

For O=C(O)CN(c1ccc(F)cc1)S(=O)(=O)c1ccccc1 , which call appears in the assay record?
inactive

Which result was noted for this compound in the test: CN1C(=O)C(C(N)=O)C2CC1(C)Oc1ccccc12 (configuration not stated)
inactive

----------
Listing: GI50 of selected compounds
- System: SK-MEL-28
- MEASUREMENT_DESCRIPTION: NCI tumour cell line growth inhibition, 48 h
Calls of active or inactive are those of the source. Rule as the data show it: active = GI50 up to about 1.1 µM and inactive = higher.

CC1=C(Cl)C[C@@H](/C(C)=C\Cl)O[C@@]1(O)C(Br)Br : 59.8 µM (inactive)
Cc1ccc(-c2nc(C)c(C(=O)Nc3ccc(Cl)cc3)s2)cc1 : > 100 µM (inactive)
O=NN1C(c2ccccc2)CC(=NO)CC1c1ccccc1 (stereo not given) : > 100 µM (inactive)
C[C@H](CCC1=NCCN1)[C@H]1CC[C@H]2[C@@H]3[C@H](O)C[C@@H]4C[C@H](O)CC[C@]4(C)[C@H]3CC[C@]12C : 14.2 µM (inactive)

I would be grateful if you could share the reported GI50 for Oc1ccc(Br)cc1/C=N/c1c(NC2CCCCC2)oc2ccc(Br)cc12 .
41.5 µM (inactive)

Using the record for COc1ccc(CC2c3cc(OC)c(OC)c(OC)c3CC[N+]2(C)C)cc1Oc1ccc(CC2c3cc4c(c(OC)c3CCN2C)OCO4)cc1 (stereo not given) , report its GI50.
> 100 µM (inactive)

Could you tell me which GI50 is on file for Cc1[nH]c(O)nc1C(=O)c1ccc(-n2ccnc2)cc1 ?
> 100 µM (inactive)

Which measured GI50 value corresponds to CCOC(=O)CC(C)C(C#N)(OP1(=O)OC(c2ccccc2)C(C)N1C)c1ccccc1 (stereo not given) ?
81.7 µM (inactive)

# input compound: O=C1c2ccccc2C(=O)c2c(O)ccc(O)c21 ; wanted: its GI50
> 100 µM (inactive)

I am curious: what GI50 value has been reported for CCCCn1cnc2c(c(CC#N)nn2-c2ccccc2)c1=N ?
44.1 µM (inactive)
